B1: CCDC6 (parent)
chain: TLFKKIQALQKEKETLAVNYEKEE

- Variants of: B1
- assayName: protein stability index of a GFP-peptide fusion (GPS, HEK-293T) (PSI 1-6); higher = more stable;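 further: lentivirally expressed fusions sorted by FACS into six bins by GFP to DsRed ratio, PSI derived from sequencing read proportions per bin multiplied by bin number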
- measurementConditions: c terminus: a fixed tail appended
Attribute: protein stability index
// return just the number, without any unit appended

Example results:
> print(dat)
                biopolymersequence            assayendpoint  numericreadout
1  TLFKKIQALQKEKEALAVNYEKEE [T15A]  protein stability index            2.97
2  TLFKKIQALIKEKETLAVNYEKEE [Q10I]  protein stability index            2.35
3   KLFKKIQALQKEKETLAVNYEKEE [T1K]  protein stability index            3.06
4  TLFKKIQALQKERETLAVNYEKEE [K13R]  protein stability index            3.49

Turning now to a further variant:
GET /values?readout=protein stability index&item= TLFKKIQALQKEKETLAGNYEKEE [V18G]
3.15
